- testSystem: 5-hydroxytryptamine receptor 1A (Rattus norvegicus)
- Sequence (P19327 whole entry): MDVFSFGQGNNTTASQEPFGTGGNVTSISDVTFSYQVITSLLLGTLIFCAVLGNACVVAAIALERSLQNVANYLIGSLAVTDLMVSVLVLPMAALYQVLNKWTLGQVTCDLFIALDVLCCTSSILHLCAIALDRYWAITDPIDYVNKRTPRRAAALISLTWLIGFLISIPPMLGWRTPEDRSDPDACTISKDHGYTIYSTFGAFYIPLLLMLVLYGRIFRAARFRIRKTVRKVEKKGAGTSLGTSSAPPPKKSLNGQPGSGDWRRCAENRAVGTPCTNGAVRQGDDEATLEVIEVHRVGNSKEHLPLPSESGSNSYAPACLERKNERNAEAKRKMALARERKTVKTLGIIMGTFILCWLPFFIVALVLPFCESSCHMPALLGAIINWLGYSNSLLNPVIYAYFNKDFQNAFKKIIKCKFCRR
pKi: −log10 of the molar value.
Field pKi: reported value for 5-hydroxytryptamine receptor 1A (Rattus norvegicus); entries drawn from several documents.
pKi vs 7: at or above is true, below is false.

Check out these entries, answers already filled in.
# compound, assignedCategory
measured = [
    ("O=C(CCN1CCN(c2cccc(Cl)c2Cl)CC1)c1cc2c3c(c1)CCC(=O)N3CCC2", "false"),
    ("CC(=O)NCc1ccc(CN2CCN(c3ccc(F)cc3)CC2)cc1", "false"),
    ("CC1CCN(CCC2CCCN2S(=O)(=O)c2cccc(O)c2)CC1 (single isomer, unassigned)", "false"),
]

*Q* Please indicate if the recorded pKi for O=C1CC(c2c[nH]c3ccccc23)C(=O)N1CCCCN1CC=C(c2c[nH]c3ccc(Br)cc23)CC1 (racemic) meets or exceeds 7.
*A* true

*Q* Please indicate if the recorded pKi for `O=C(c1ccc([N+](=O)[O-])cc1)N1CCC(CN2CCC(c3noc4cc(F)ccc34)CC2)CC1` meets or exceeds 7.
*A* false

*Q* Please indicate if the recorded pKi for `Cc1cccc(C)c1-c1cccc(SCCN(C)C)c1` meets or exceeds 7.
*A* false

*Q* Please indicate if the recorded pKi for O=C(CCC(Oc1ccccc1F)c1ccccc1)C1CCN(c2ccc(F)cc2)CC1 (stereo not given) meets or exceeds 7.
*A* true

*Q* Please indicate if the recorded pKi for `Cn1c(=O)c2c(ncn2CCCN2CCc3ccccc3C2)n(C)c1=O` meets or exceeds 7.
*A* false

*Q* Please indicate if the recorded pKi for O=C1CC(c2c[nH]c3ccccc23)C(=O)N1CCN1CCC(c2c[nH]c3ccc(F)cc23)CC1 (racemic) meets or exceeds 7.
*A* true

*Q* Please indicate if the recorded pKi for `O=S(=O)(NCCCCN1CCN(c2cccc(Cl)c2)CC1)c1cccc2ccccc12` meets or exceeds 7.
*A* false

*Q* Please indicate if the recorded pKi for `O=C(c1ccc(Cl)c(Cl)c1)N1CCC(CNCc2cccc(-c3ccccc3)n2)CC1` meets or exceeds 7.
*A* true

*Q* Please indicate if the recorded pKi for `CC(C)Oc1ccccc1OCCNCc1cccc(-c2ccccc2)c1` meets or exceeds 7.
*A* true

*Q* Please indicate if the recorded pKi for `O=C(NC[C@@H]1CCCN1CCc1ccccc1)c1ccccc1` meets or exceeds 7.
*A* true

*Q* Please indicate if the recorded pKi for `CCOc1ccccc1CNC(=N)NC(=O)NC` meets or exceeds 7.
*A* false

*Q* Please indicate if the recorded pKi for `CC(C)Oc1ccccc1N1CCN(Cc2ccc(C(=O)N3CCCCC3)s2)CC1.O=C(O)CCC(=O)O` meets or exceeds 7.
*A* true
